target: acetylcholine receptor; assay: SPR, peptide at 10 uM over immobilized acetylcholine receptor
Consider the following binders; for each one, report its Binding affinity (RU).
Numbers only, in RU.

Required: Binding affinity (RU), one value per binder below.
1. KKTNKR [6mer-1-1199]
2. KQRYKK [6mer-2-84]

Given back:
[39, 139]

Required: Binding affinity (RU), one value per binder below.
1. KSYYRR [6mer-2-128]
2. RVVYKK [6mer-2-108]

Given back:
1: 147; 2: 153
